# System: A549
# measurement-notes: Cytotoxicity against human A549 cells after 72 hrs by MTT assay
# Type: functional, cell-based
# details: A549, 72 h
Kindly supply the reported IC50 values for the records listed here.
Report as a plain number; the unit µM is understood.

Lab note: compound O=C(Cc1ccccc1)Nc1nnc(-c2ccc(O)c(O)c2)s1 tested on A549; recorded IC50 was 15.4

Lab note: compound Cc1ccc(C(=O)Nc2nnc(-c3ccc(O)c(O)c3)s2)cc1 tested on A549; recorded IC50 was 11.8

Lab note: compound O=C(Nc1nnc(-c2ccc(O)c(O)c2)s1)C1CCCCC1 tested on A549; recorded IC50 was 16.3

Lab note: compound O=C(Nc1nnc(-c2cccc(O)c2O)s1)c1ccc(Cl)cc1 tested on A549; recorded IC50 was 9.5

Lab note: compound O=C(COc1ccccc1)Nc1nnc(-c2cccc(O)c2O)s1 tested on A549; recorded IC50 was 10.5

Lab note: compound O=C(COc1ccccc1)Nc1nnc(-c2ccc(O)c(O)c2)s1 tested on A549; recorded IC50 was 21.2

Lab note: compound O=C(Nc1nnc(-c2ccc(O)c(O)c2)s1)c1ccc(Cl)cc1 tested on A549; recorded IC50 was 14.6

Lab note: compound Cc1ccc(C(=O)Nc2nnc(-c3cccc(O)c3O)s2)cc1 tested on A549; recorded IC50 was 11.3

Lab note: compound CC(=O)Nc1nnc(-c2cccc(O)c2O)s1 tested on A549; recorded IC50 was 200

Lab note: compound O=C(Nc1nnc(-c2ccc(O)c(O)c2)s1)C12CC3CC(CC(C3)C1)C2 tested on A549; recorded IC50 was 13

Lab note: compound CC(=O)Nc1nnc(-c2ccc(O)c(O)c2)s1 tested on A549; recorded IC50 was 133

* * *

# Tested on: HL-60
# measurement-notes: Downregulation of VEGFA in human HL60 cells assessed as decrease in mRNA expression levels at 6 uM after 24 hrs by RT-PCR analysis
# Type: functional, cell-based
Calls of active or inactive are those of the source. No cut-off for these calls is given here.
assay-metric: Activity

1. Cc1ccc(C(=O)Nc2nnc(-c3cccc(O)c3O)s2)cc1; Active
2. O=C(Nc1nnc(-c2ccc(O)c(O)c2)s1)C12CC3CC(CC(C3)C1)C2; Active
3. O=C(Nc1nnc(-c2cccc(O)c2O)s1)c1ccc(Cl)cc1; Active
4. O=C(Nc1nnc(-c2cccc(O)c2O)s1)C12CC3CC(CC(C3)C1)C2; Active

* * *

# System: A549
# measurement-notes: Cytotoxicity against human A549 cells after 72 hrs by MTT assay
# Type: functional, cell-based
# details: A549, 72 h
assay-metric: IC50 (µM)
Report as a plain number; the unit µM is understood.

Record O=C(Nc1nnc(-c2cccc(O)c2O)s1)c1ccccc1 , field IC50: 12.3

Record O=C(Nc1nnc(-c2ccc(O)c(O)c2)s1)c1ccccc1 , field IC50: 13

Record O=C(Nc1nnc(-c2cccc(O)c2O)s1)C12CC3CC(CC(C3)C1)C2 , field IC50: 12.8

Record O=C(Nc1nnc(-c2cccc(O)c2O)s1)C1CCCCC1 , field IC50: 11

Record O=C(Cc1ccccc1)Nc1nnc(-c2cccc(O)c2O)s1 , field IC50: 11.8

* * *

Kindly supply the reported pIC50 values for the records listed here.
# measurement-notes: Antioxidant activity assessed as DPPH radical scavenging activity after 30 mins in absence of light
# Format: functional
Please treat pIC50 as minus the base-10 logarithm of the molar concentration.

Record O=C(Nc1nnc(-c2ccc(O)c(O)c2)s1)c1ccc(Cl)cc1 , field pIC50: 4.28

Record CC(=O)Nc1nnc(-c2ccc(O)c(O)c2)s1 , field pIC50: 4.63

Record CC(Cc1ccc(O)c(O)c1)C(C)Cc1ccc(O)c(O)c1 (stereo not drawn) [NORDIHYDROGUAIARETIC ACID] , field pIC50: 4.68

Record O=C(Nc1nnc(-c2cccc(O)c2O)s1)C1CCCCC1 , field pIC50: 4.70

Record O=C(Cc1ccccc1)Nc1nnc(-c2ccc(O)c(O)c2)s1 , field pIC50: 4.67

Record O=C(Nc1nnc(-c2ccc(O)c(O)c2)s1)C1CCCCC1 , field pIC50: 4.43

Record Cc1ccc(C(=O)Nc2nnc(-c3ccc(O)c(O)c3)s2)cc1 , field pIC50: 4.47

Record CC(=O)Nc1nnc(-c2cccc(O)c2O)s1 , field pIC50: 3.95

Record O=C(Nc1nnc(-c2cccc(O)c2O)s1)c1ccc(Cl)cc1 , field pIC50: 4.52

Record O=C(Nc1nnc(-c2ccc(O)c(O)c2)s1)c1ccccc1 , field pIC50: 4.63

Record O=C(COc1ccccc1)Nc1nnc(-c2ccc(O)c(O)c2)s1 , field pIC50: 4.44

Record Cc1ccc(C(=O)Nc2nnc(-c3cccc(O)c3O)s2)cc1 , field pIC50: 4.57

Record O=C(Nc1nnc(-c2cccc(O)c2O)s1)c1ccccc1 , field pIC50: 4.65

Record O=C1O[C@H]([C@@H](O)CO)C(O)=C1O [ASCORBIC ACID] , field pIC50: 4.42

Record O=C(Cc1ccccc1)Nc1nnc(-c2cccc(O)c2O)s1 , field pIC50: 4.68

Record O=C(COc1ccccc1)Nc1nnc(-c2cccc(O)c2O)s1 , field pIC50: 4.78

Record O=C(Nc1nnc(-c2cccc(O)c2O)s1)C12CC3CC(CC(C3)C1)C2 , field pIC50: 4.85

Record O=C(Nc1nnc(-c2ccc(O)c(O)c2)s1)C12CC3CC(CC(C3)C1)C2 , field pIC50: 4.75
